# protocol notes: self-splicing fitness, log relative to wild type (ln ratio); higher = more splicing; Tetrahymena group I intron in knt gene, E. coli kanamycin selection, DiMSum; sequences stand for … in CUCUCU…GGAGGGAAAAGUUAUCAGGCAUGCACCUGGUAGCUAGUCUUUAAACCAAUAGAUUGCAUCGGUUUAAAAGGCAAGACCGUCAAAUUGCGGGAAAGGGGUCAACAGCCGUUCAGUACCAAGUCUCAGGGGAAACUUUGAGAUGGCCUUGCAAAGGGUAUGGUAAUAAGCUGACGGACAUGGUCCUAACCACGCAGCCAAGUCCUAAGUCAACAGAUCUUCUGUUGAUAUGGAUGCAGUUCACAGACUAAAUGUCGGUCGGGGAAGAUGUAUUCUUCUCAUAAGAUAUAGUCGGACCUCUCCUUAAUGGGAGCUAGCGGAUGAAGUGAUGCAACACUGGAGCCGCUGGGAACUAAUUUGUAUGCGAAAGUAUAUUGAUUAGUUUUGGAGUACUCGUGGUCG;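 note: selection with 25 µg/mL kanamycin versus none on LB agar overnight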
# setup conditions: 30 °C
recorded endpoint: self-splicing fitness (ln)
Format: numeric value only, no unit, no commentary.

Quick one: self-splicing fitness (ln) for CCUUAGCAAUAUUACGUGUG ?
-1.61

====

# protocol notes: self-splicing fitness, log relative to wild type (ln ratio); higher = more splicing; Tetrahymena group I intron in knt gene, E. coli kanamycin selection, DiMSum; sequences stand for … in CUCUCU…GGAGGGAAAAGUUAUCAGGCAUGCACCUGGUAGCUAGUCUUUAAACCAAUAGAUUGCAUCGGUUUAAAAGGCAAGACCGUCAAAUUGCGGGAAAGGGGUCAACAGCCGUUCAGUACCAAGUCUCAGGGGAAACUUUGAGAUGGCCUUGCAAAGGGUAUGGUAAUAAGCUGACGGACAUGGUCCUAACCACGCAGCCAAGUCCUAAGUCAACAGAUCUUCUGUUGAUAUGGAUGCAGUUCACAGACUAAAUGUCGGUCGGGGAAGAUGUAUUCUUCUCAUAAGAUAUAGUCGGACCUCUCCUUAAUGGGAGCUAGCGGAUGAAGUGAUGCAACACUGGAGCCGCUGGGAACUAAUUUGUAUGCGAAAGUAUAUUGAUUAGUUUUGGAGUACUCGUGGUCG
# setup conditions: 37 °C
Decide using self-splicing fitness (ln): a value greater than or equal to -2 is label 1, a smaller one is label 0.

residues=AAAGAGCAAUAUUACGGCGA answer_label="label 1"
residues=GAACAGCAAUAUUACGAUAA answer_label="label 1"
residues=UAUAAGCAAUAUUACGUCAU answer_label="label 1"
residues=CGACAGCAAUAUUACGUAAA answer_label="label 0"
residues=CGCCAGCAAUAUUACGAUAU answer_label="label 0"

// inclusive: self-splicing fitness (ln) at least -2? input: UCGGAGCAAUAUUACGGUAU
label 0

// inclusive: self-splicing fitness (ln) at least -2? input: CGGCAGCAAUAUUACGUCUG
label 1

// inclusive: self-splicing fitness (ln) at least -2? input: CAUGAGCAAUAUUACGUACA
label 0

// inclusive: self-splicing fitness (ln) at least -2? input: AAUGAGCAAUAUUACGCCAG
label 0

====

# protocol notes: self-splicing fitness, log relative to wild type (ln ratio); higher = more splicing; Tetrahymena group I intron in knt gene, E. coli kanamycin selection, DiMSum; sequences stand for … in CUCUCU…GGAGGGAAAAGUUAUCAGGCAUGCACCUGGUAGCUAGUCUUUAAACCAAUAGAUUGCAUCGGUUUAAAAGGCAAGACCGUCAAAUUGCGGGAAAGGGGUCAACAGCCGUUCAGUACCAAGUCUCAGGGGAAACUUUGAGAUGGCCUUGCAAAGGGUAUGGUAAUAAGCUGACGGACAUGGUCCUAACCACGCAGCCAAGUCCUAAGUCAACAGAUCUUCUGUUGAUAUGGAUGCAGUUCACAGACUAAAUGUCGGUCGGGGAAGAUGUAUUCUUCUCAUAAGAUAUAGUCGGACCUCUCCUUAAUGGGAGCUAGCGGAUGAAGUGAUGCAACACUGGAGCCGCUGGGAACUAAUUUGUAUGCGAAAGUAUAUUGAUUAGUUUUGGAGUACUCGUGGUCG
# setup conditions: 37 °C
Decide using self-splicing fitness (ln): a value greater than or equal to -0.8 is met, a smaller one is not met.

residues=UUCCAGCAAUAUUACGCCGG answer_label="not met"
residues=ACCGAGCAAUAUUACGCAUG answer_label="not met"
residues=AUAGAGCAAUAUUACGCCGA answer_label=met
residues=AUUAAGCAAUAUUACGGUGG answer_label="not met"

// inclusive: self-splicing fitness (ln) at least -0.8? input: UGCUAGCAAUAUUACGACGG
met

// inclusive: self-splicing fitness (ln) at least -0.8? input: AUGCAGCAAUAUUACGGUAC
not met

// inclusive: self-splicing fitness (ln) at least -0.8? input: GUCCAGCAAUAUUACGGCUA
met

// inclusive: self-splicing fitness (ln) at least -0.8? input: AGCUAGCAAUAUUACGAAAG
not met

====

Overview of recorded self-splicing fitness (ln) for various sequences
# protocol notes: self-splicing fitness, log relative to wild type (ln ratio); higher = more splicing; Tetrahymena group I intron in knt gene, E. coli kanamycin selection, DiMSum; sequences stand for … in CUCUCU…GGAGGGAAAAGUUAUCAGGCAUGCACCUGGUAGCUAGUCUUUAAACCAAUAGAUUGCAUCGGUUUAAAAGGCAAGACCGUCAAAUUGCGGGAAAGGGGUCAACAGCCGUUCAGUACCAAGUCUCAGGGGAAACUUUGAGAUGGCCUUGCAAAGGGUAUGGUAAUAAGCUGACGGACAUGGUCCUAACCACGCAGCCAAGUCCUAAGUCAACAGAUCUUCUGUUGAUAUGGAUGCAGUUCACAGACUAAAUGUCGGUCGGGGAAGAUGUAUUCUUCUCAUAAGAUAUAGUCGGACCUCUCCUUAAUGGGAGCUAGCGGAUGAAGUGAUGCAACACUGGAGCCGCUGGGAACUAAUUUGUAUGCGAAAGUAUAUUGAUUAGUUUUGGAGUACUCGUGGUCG
# setup conditions: 37 °C
Format: numeric value only, no unit, no commentary.

Here is how some sequences turned out for self-splicing fitness (ln).
residues=AGUGAGCAAUAUUACGAGUC recorded_endpoint="self-splicing fitness (ln)" data_value=-1.93
residues=GCGUAGCAAUAUUACGACAU recorded_endpoint="self-splicing fitness (ln)" data_value=-0.025
residues=GCAAAGCAAUAUUACGGCAC recorded_endpoint="self-splicing fitness (ln)" data_value=-0.426
residues=GCCAAGCAAUAUUACGUGGA recorded_endpoint="self-splicing fitness (ln)" data_value=-0.303
residues=CGAGAGCAAUAUUACGUAGC recorded_endpoint="self-splicing fitness (ln)" data_value=-2.52

Quick one: self-splicing fitness (ln) for CCGGAGCAAUAUUACGUCAA ?
-3.39

Quick one: self-splicing fitness (ln) for GAUAAGCAAUAUUACGGCUU ?
-0.0417

====

# protocol notes: self-splicing fitness, log relative to wild type (ln ratio); higher = more splicing; Tetrahymena group I intron in knt gene, E. coli kanamycin selection, DiMSum; sequences stand for … in CUCUCU…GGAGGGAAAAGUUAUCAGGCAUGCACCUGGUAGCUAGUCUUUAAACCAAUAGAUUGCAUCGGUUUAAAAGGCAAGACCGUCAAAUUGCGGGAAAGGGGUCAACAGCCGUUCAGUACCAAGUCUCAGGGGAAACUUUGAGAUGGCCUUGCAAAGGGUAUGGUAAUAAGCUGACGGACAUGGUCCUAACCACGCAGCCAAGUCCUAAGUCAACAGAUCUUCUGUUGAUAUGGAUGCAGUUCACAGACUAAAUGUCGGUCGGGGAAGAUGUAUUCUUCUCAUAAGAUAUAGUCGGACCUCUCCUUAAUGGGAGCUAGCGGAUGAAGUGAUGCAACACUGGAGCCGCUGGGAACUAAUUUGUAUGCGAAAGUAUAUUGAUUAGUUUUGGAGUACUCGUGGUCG
# setup conditions: 37 °C
Decide using self-splicing fitness (ln): a value greater than or equal to -0.7 is true (1), a smaller one is false (0).

Solved entries (count: 3):
residues=CCCUAGCAAUAUUACGCAUC answer_label="false (0)"
residues=CCUAAGCAAUAUUACGGAUU answer_label="false (0)"
residues=UAUCAGCAAUAUUACGGUUA answer_label="true (1)"

// inclusive: self-splicing fitness (ln) at least -0.7? input: UUUAAGCAAUAUUACGAUUU
false (0)

// inclusive: self-splicing fitness (ln) at least -0.7? input: UGCGAGCAAUAUUACGUUCC
false (0)

// inclusive: self-splicing fitness (ln) at least -0.7? input: GCUCAGCAAUAUUACGAUUU
true (1)

// inclusive: self-splicing fitness (ln) at least -0.7? input: CCUCAGCAAUAUUACGCUGU
false (0)

====

# protocol notes: self-splicing fitness, log relative to wild type (ln ratio); higher = more splicing; Tetrahymena group I intron in knt gene, E. coli kanamycin selection, DiMSum; sequences stand for … in CUCUCU…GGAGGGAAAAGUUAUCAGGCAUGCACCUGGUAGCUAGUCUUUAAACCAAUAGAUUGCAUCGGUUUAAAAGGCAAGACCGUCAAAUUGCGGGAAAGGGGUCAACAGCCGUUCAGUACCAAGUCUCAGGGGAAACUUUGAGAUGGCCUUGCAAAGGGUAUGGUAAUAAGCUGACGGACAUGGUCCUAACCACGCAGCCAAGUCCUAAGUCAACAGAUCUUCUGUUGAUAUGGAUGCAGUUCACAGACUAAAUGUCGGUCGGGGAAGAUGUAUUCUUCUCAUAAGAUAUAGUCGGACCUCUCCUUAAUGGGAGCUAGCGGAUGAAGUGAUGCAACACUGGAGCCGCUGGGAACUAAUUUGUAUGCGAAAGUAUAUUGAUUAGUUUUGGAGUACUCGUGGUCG
# setup conditions: 30 °C
recorded endpoint: self-splicing fitness (ln)
Format: numeric value only, no unit, no commentary.

residues=UUCUAGCAAUAUUACGAUUC recorded_endpoint="self-splicing fitness (ln)" data_value=-1.98
residues=CCGUAGCAAUAUUACGGGCU recorded_endpoint="self-splicing fitness (ln)" data_value=-2.94

Quick one: self-splicing fitness (ln) for GAACAGCAAUAUUACGUGGC ?
-3.03
